- runDescription: qHTS RealTime-Glo MT Cell Viability Assay in HepG2 cells - 16 hour (AID 1224885); further: nearly all actives have a fitted effect of over 50% in size
- conditionDescription: RealTime-Glo luminescence; series mostly up to 76.8 µM
Results filed as inconclusive are left out. Calls of active or inactive are those of the source. The call rests on the fitted dose curve; in most records, active means well fitted cell-killing curve with a large enough effect in the repeat runs; inconclusive means weak or mixed curves; inactive means flat fitted curve, though single readings scatter.
Assign a class; possible classes are 1 (yes) = active, 0 (no) = inactive

Some solved cases for reference:
{"molecule": "CSc1ccc(O)cc1C", "group": "0 (no)"}
{"molecule": "Nc1cc([N+](=O)[O-])ccc1Cl", "group": "0 (no)"}
{"molecule": "NC(=O)C1CO1 (stereo not drawn)", "group": "0 (no)"}

Kindly provide the recorded test outcome for the following molecule: CC(CC(C)(C)C)CC(C)(C)CC(C)(C)C (stereo not drawn)
0 (no)

Kindly provide the recorded test outcome for the following molecule: "O=C1C=CC(=O)N1c1cccc(N2C(=O)C=CC2=O)c1"
1 (yes)

Hey, just so you know, these numbers are from PubChem BioAssay (Tox21).
